# Target or test system: human Nav1.7 (Homo sapiens)
# Sequence (Q15858 1-1977 isoform Q15858-3): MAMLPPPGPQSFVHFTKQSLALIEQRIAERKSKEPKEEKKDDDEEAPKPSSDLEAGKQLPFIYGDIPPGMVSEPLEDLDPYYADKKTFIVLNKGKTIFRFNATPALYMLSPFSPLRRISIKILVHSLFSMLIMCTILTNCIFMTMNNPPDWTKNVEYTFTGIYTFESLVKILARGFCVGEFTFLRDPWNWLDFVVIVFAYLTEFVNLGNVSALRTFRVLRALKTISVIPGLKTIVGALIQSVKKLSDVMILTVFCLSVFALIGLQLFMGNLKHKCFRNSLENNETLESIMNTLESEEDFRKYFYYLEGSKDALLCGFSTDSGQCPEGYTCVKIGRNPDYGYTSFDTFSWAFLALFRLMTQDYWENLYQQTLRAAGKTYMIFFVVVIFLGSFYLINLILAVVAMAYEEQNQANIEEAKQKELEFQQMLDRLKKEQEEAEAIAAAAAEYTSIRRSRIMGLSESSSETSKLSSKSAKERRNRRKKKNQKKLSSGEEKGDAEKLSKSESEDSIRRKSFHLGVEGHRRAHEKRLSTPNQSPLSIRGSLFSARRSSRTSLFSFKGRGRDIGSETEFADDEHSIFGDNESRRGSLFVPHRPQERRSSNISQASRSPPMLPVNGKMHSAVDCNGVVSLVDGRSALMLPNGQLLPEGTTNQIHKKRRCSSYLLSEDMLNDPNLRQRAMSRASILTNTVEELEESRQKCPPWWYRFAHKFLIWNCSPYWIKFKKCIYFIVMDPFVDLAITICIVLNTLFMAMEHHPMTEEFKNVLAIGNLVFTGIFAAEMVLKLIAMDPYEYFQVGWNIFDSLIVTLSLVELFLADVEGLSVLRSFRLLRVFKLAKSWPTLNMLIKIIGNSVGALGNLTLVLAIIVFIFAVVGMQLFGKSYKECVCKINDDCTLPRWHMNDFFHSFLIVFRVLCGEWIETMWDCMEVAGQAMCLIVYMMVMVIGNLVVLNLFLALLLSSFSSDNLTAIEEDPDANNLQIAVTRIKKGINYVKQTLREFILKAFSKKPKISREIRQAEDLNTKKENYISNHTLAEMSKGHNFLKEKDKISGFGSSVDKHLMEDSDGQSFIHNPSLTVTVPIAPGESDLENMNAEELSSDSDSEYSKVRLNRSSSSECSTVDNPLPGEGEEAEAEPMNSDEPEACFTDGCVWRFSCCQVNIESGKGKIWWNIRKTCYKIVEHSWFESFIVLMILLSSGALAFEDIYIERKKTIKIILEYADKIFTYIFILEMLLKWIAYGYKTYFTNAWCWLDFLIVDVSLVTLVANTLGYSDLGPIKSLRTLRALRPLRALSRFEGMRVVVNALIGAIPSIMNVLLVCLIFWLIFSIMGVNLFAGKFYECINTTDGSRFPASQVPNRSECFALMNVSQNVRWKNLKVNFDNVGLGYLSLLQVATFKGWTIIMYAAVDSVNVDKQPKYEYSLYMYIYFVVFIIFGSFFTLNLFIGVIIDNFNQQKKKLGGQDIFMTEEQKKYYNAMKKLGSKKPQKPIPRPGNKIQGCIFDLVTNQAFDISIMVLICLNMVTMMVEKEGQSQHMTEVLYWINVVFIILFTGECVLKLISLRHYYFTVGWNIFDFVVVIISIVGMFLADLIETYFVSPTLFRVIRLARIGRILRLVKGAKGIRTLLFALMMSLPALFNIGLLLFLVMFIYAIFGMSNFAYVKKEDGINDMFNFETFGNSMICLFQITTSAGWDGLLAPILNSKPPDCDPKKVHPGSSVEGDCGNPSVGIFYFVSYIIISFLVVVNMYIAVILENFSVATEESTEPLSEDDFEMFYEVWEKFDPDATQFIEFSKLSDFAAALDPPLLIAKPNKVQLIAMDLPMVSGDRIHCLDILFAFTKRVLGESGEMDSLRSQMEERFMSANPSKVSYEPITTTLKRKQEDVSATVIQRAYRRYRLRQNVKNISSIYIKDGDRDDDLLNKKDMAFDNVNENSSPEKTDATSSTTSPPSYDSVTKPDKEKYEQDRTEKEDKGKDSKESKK
# Assay comment: FLIPR sodium dye assay (CoroNa Green AM Na+ dye, primary fluorescence assay) in recombinant Nav1.7/HEK293 cells
# Assay type: cell-based
# Protocol conditions: Table 6; CoroNa Green AM Na+ dye primary fluorescence assay; read-out: Nav1.7 Activity (μM) FLIPR assay IC50
Endpoint name: IC50 (µM)

These solved cases illustrate the format of a correct answer.
Molecule	Target or test system	IC50 / µM
NC(=O)c1cc(N2CC[C@H]2C(N)=O)nc(-c2ccc(Oc3ccc(F)cc3)cc2)n1	human Nav1.7 (Homo sapiens)	0.28
C[C@H](Nc1cc(C(N)=O)nc(-c2ccc(Oc3ccc4c(c3)CCC4)cc2)n1)C(N)=O	human Nav1.7 (Homo sapiens)	0.11
COc1ccc(CNc2cc(C(N)=O)nc(-c3ccc(Oc4ccc(F)cc4)cc3)n2)c(OC)c1	human Nav1.7 (Homo sapiens)	1.74

1: NC(=O)c1cc(N2CCC[C@H]2C(N)=O)nc(-c2ccc(Oc3ccc(OC(F)(F)F)cc3)cc2)n1
2: NC(=O)c1cc(N[C@H]2CCNC2=O)nc(-c2ccc(Oc3cccc(F)n3)cc2)n1
3: NC(=O)c1cc(N[C@H]2CCNC2=O)nc(-c2ccc(Oc3ccc(OCC(F)(F)F)cn3)cc2)n1
4: NC(=O)c1cc(N[C@H]2CCNC2=O)nc(-c2ccc(Oc3ccc(C4CC4)cn3)cc2)n1
Order the records by IC50, with each subsequent value no larger than the one before. Record the ranking as a list of labels in the requested order.
2, 3, 1, 4
(2: 2.42 µM, 3: 1.18 µM, 1: 0.28 µM, 4: 0.064 µM)

a: NC(=O)c1cc(N[C@H]2CCNC2=O)nc(Nc2ccc(Oc3ccc(C(F)(F)F)cn3)cc2)n1
b: NC(=O)c1cc(N[C@H]2CCNC2=O)nc(N2CC(Oc3ccc(C(F)(F)F)cn3)C2)n1
c: NC(=O)c1cc(N2CCNCC2C(N)=O)nc(-c2ccc(Oc3ccc(Cl)cc3F)cc2)n1 (stereo not drawn)
Order the records by IC50, with each subsequent value no larger than the one before. Record the ranking as a list of labels in the requested order.
a, b, c
(a: 2.07 µM, b: 0.95 µM, c: 0.29 µM)

---

# Target or test system: hNav1.7 (Homo sapiens, UniProt Q15858)
# Sequence (Q15858 1-1977 isoform Q15858-3): as above
# Assay comment: Electrophysiology (EP) whole-cell patch clamp assay in hNav1.7 expressing HEK-293 cells
# Type: cell-based
# Protocol conditions: Table 7; affinity for inactivated channels; read-out: Nav1.7 Activity (μM) EP assay Ki
Endpoint name: Ki (µM)

Compound	Target or test system	Ki, µM
NC(=O)c1cc(O[C@H]2CCNC2=O)nc(-c2ccc(Oc3ccc(C(F)(F)F)cc3CN3CCCC3)cc2)n1 [Cpd No. 230]	hNav1.7 (Homo sapiens, UniProt Q15858)	0.74
NC(=O)c1cc(O[C@H]2CCNC2=O)nc(-c2ccc(Oc3ccc(C4CC4)cn3)cc2)n1 [Cpd No. 234]	hNav1.7 (Homo sapiens, UniProt Q15858)	0.67
C[C@H](Nc1cc(C(N)=O)nc(-c2ccc(Cc3ccc(C(F)(F)F)cn3)cc2)n1)C(N)=O [Cpd No. 228]	hNav1.7 (Homo sapiens, UniProt Q15858)	1.1
NC(=O)c1cc(O[C@H]2CCNC2=O)nc(N2[C@@H]3CC[C@H]2C[C@@H](Oc2ccc(C(F)(F)F)cn2)C3)n1 [Cpd No. 224]	hNav1.7 (Homo sapiens, UniProt Q15858)	0.81

1: CCN(CC)Cc1cc(C(F)(F)F)ccc1Oc1ccc(-c2nc(N[C@H](C)C(N)=O)cc(C(N)=O)n2)cc1 [Cpd No. 215]
2: NC(=O)c1cc(O[C@H]2CCNC2=O)nc(-c2ccc(Cc3ccc(C(F)(F)F)cn3)cc2)n1 [Cpd No. 229]
3: NC(=O)c1cc(O[C@H]2CCNC2=O)nc(-c2ccc(Oc3ccc(C(F)(F)F)cn3)cc2)n1 [Cpd No. 227]
Order the records by Ki, with each subsequent value no larger than the one before. Record the ranking as a list of labels in the requested order.
1, 2, 3
(1: 1.39 µM, 2: 0.62 µM, 3: 0.15 µM)
